# assayedTarget: Acetylcholinesterase (Homo sapiens, UniProt P22303)
# Sequence (P22303 whole entry): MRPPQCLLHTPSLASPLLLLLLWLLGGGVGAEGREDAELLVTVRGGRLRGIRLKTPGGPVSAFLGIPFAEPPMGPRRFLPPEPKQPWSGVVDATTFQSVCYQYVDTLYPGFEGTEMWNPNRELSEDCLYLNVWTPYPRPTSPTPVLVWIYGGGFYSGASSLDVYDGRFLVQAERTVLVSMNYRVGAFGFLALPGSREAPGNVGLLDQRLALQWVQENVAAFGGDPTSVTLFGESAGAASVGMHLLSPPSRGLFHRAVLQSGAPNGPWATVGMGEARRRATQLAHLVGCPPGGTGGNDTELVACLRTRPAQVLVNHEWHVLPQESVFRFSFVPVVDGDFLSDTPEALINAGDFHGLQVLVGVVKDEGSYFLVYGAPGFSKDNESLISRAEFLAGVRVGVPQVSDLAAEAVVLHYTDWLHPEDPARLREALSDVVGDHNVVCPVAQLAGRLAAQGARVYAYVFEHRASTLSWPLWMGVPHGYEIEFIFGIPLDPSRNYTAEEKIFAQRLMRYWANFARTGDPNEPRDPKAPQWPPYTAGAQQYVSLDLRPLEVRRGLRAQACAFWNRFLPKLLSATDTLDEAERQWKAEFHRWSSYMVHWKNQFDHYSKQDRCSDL
# protocolSummary: Inhibition of human AChE using acetylthiocholine iodide as substrate incubated for 1 min by spectrophotometry based Ellman's method
pIC50: −log10 of the molar value.
For each record, write down the corresponding pIC50.

> print(dat)
                                  structure  measuredparameter  result
1  CN(CCc1ccc(O)cc1)Cc1cc2c(cc1-c1cccc3c1N(C)CC3)OCO2              pIC50  < 4.00

# evaluate next
Incoming: Could you tell me which pIC50 is on file for COc1cc(CN(C)CCc2ccc(O)cc2)c(-c2cccc3c2N(C)CC3)cc1OC ?
Outgoing: < 4.00
